Test system: resting PBMC
Experiment: CellTiter-Glo cell viability assay, 72 hours
Format: cell-based, human
Conditions: Homo sapiens, PBMC, 72 h, resting PBMC MD9
measure: IC50 (nM)
A number alone suffices; assume nM.

In: Endpoint output: IC50 of "Cc1[nH]c2ccccc2c1CCNCc1ccc(/C=C/C(=O)NO)cc1" . Value?
Out: 16

---

Test system: resting PBMC
Test: CellTiter-Glo cell viability assay, 72 hours
Type: cell-based, human
Conditions: Homo sapiens, PBMC, 72 h, resting PBMC MD8
measure: IC50 (nM)
A number alone suffices; assume nM.

In: For resting PBMC, provide IC50 of "Cc1[nH]c2ccccc2c1CCNCc1ccc(/C=C/C(=O)NO)cc1" please.
Out: 26

---

Tested on: anti-CD3 and IL2-activated PBMC
Assay: CellTiter-Glo cell viability assay, 72 hours
Format: cell-based, human
Conditions: Homo sapiens, PBMC, 72 h, activated PBMC MD9
measure: IC50
Write the quantity with the unit trailing the number.

In: Endpoint output: IC50 of Cc1[nH]c2ccccc2c1CCNCc1ccc(/C=C/C(=O)NO)cc1 [panobinostat] . Value?
Out: 12 nM

---

System: human melanoma cell lines
Test: CellTiter-Glo cell viability assay, 72 hours
Assay type: cell-based
Conditions: Homo sapiens
pIC50: −log10 of the molar value.
measure: pIC50

In: Endpoint output: pIC50 of Cc1[nH]c2ccccc2c1CCNCc1ccc(/C=C/C(=O)NO)cc1 [panobinostat] . Value?
Out: 6.90 to 7.26

---

System: M229 melanoma cell line
Assay: CellTiter-Glo cell viability assay, 72 hours
Format: cell-based
Details: Homo sapiens, M229, read-out: sensitivity to panobinostat
pIC50: −log10 of the molar value.
measure: pIC50

In: For M229 melanoma cell line, provide pIC50 of Cc1[nH]c2ccccc2c1CCNCc1ccc(/C=C/C(=O)NO)cc1 [panobinostat] please.
Out: < 7.30

---

Test system: bone marrow from a patient with multiple myeloma (BM-1)
Assay: CellTiter-Glo cell viability assay, 72 hours
Format: cell-based
Conditions: Homo sapiens
measure: pIC50
Scale explanation: pIC50 corresponds to minus log10 of a concentration expressed in moles per litre.

In: For bone marrow from a patient with multiple myeloma (BM-1), provide pIC50 of "Cc1[nH]c2ccccc2c1CCNCc1ccc(/C=C/C(=O)NO)cc1" please.
Out: 7.05
